meta.source: PubChem BioAssay (EPA / NIEHS)

- tested_system: Nuclear respiratory factor 1 (Homo sapiens) (UniProt Q16656)
- Sequence (Q16656 whole entry, looked up): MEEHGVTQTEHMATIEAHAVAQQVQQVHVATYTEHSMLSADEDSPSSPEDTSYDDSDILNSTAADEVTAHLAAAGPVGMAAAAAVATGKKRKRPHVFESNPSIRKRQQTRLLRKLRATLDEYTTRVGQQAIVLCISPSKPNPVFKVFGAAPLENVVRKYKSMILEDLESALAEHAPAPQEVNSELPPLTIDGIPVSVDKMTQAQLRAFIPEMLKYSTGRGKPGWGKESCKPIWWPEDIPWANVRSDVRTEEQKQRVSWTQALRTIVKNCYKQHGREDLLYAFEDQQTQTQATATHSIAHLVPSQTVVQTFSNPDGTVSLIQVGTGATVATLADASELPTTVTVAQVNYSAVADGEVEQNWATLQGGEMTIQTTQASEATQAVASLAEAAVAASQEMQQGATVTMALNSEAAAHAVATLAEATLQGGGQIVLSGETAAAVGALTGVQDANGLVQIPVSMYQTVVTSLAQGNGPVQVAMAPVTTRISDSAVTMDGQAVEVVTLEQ
- assay_protocol: ATG_NRF1_CIS: Attagene CIS-FACTORIAL HepG2 Assay for human Nuclear Respiratory Factor 1 (NRF1) Orphan Gene (AID 2282987)
- condition_summary: HepG2 NRF1 cis-element reporter, Attagene multiplex; actives raise or lower the signal
Active and inactive are the calls of the source. Rule for the calls: active = hit-call score of the fitted dose curve at least 0.9, where 1 is the maximum; inactive = score below 0.9.
Return exactly one item of active, inactive

• COC(=O)c1ccccc1O = inactive

Could you check what this test reported for COc1ccc(/C=C/S(=O)(=O)NC(=O)c2ccc(C)cc2Cl)cc1 ? inactive

Could you check what this test reported for CC(=O)c1ccc2c(c1)[C@H](NC(=O)c1ccc(F)cc1)[C@@H](O)C(C)(C)O2 ? inactive

Could you check what this test reported for Fc1ccccc1[C@@H](F)COC1CCC(Nc2ncnc3[nH]ncc23)CC1 (some centres not stated) ? active

Could you check what this test reported for CC(C)CC(C)(O)C#CC(C)(O)CC(C)C (configuration not stated) ? inactive

Could you check what this test reported for Cn1c(=O)c2c(ncn2C)n(C)c1=O ? inactive

Could you check what this test reported for CC(C)=CCCC(C)CCO (configuration not stated) ? inactive

Could you check what this test reported for CCn1nc(Cc2ccccc2)cc1C1CCN(C[C@H]2C[C@H](N(C)[C@@H](C(=O)O)C(C)C)C[C@@H]2c2cccc(F)c2)CC1 ? inactive

Could you check what this test reported for O=C(NS(=O)(=O)/C=C/c1ccccc1)c1ccc(F)cc1Cl ? inactive

Could you check what this test reported for O=C(O)c1cc(N=Nc2ccc(S(=O)(=O)Nc3ccccn3)cc2)ccc1O ? inactive

Could you check what this test reported for CCOCCO ? inactive

Could you check what this test reported for Cn1cnc([N+](=O)[O-])c1Sc1ncnc2nc[nH]c12 ? inactive
